I'd appreciate it if you could supply melting point values for the items below.

I have this molecule here, Cc1c(F)cccc1NC(=O)[C@H]1C(=O)N(C)C[C@@H]1c1ccc(C(F)(F)F)cc1 , and I need its recorded melting point.
156 to 160 °C

I have this molecule here, Cc1cccc(NC(=O)[C@H]2C(=O)N(C)C[C@@H]2c2ccc(C(F)(F)F)cc2)c1F , and I need its recorded melting point.
178 to 181 °C

I have this molecule here, Cc1cccc(NC(=O)[C@H]2C(=O)N(C)C[C@@H]2c2ccc(C(F)(F)F)cc2)c1C , and I need its recorded melting point.
166 to 169 °C

I have this molecule here, CN1C[C@H](c2ccc(C(F)(F)F)cc2)[C@@H](C(=O)Nc2cccc(Cl)c2F)C1=O , and I need its recorded melting point.
138 to 141 °C

I have this molecule here, O=C1NC[C@H](c2ccc(F)c(OC(F)(F)C(F)F)c2)[C@H]1C(=O)Nc1ccc(F)cc1F (racemic) , and I need its recorded melting point.
102 to 106 °C

I have this molecule here, Cc1ccc([C@H]2CN(C)C(=O)[C@@H]2C(=O)Nc2ccc(F)c(F)c2F)cc1 , and I need its recorded melting point.
101.6 to 102.3 °C

I have this molecule here, O=C1NC[C@H](c2nccs2)[C@H]1C(=O)Nc1cccc(F)c1F , and I need its recorded melting point.
139.5 to 153 °C

I have this molecule here, CN1C[C@H](c2cc(Cl)cc(Cl)c2)[C@@H](C(=O)Nc2cccc(F)c2F)C1=O , and I need its recorded melting point.
88 to 92 °C

I have this molecule here, CN1C[C@H](c2ccc(C(F)(F)F)cc2)[C@@H](C(=O)Nc2ccc(F)cc2Br)C1=O , and I need its recorded melting point.
123 to 126 °C

I have this molecule here, CN1CC(c2cccc(/C=C/Cl)c2)C(C(=O)Nc2ccccc2F)C1=O (stereo not shown) , and I need its recorded melting point.
97 to 101 °C

I have this molecule here, CN1CC(c2cccc(OCC=C(Cl)Cl)c2)C(C(=O)Nc2cccc(F)c2F)C1=O (stereo not shown) , and I need its recorded melting point.
124 to 127 °C

I have this molecule here, CN1CC(c2cccc(O)c2)C(C(=O)Nc2cccc(F)c2F)C1=O (stereo not shown) , and I need its recorded melting point.
216 to 220 °C

I have this molecule here, CCc1cc([C@H]2CN(C)C(=O)[C@@H]2C(=O)Nc2ccccc2F)cs1 , and I need its recorded melting point.
117 to 121 °C

I have this molecule here, CN1C[C@H](c2ccc(C(F)(F)F)cc2)[C@@H](C(=O)Nc2ccccc2[S+](C)[O-])C1=O (stereo partly shown) , and I need its recorded melting point.
181 to 184 °C

I have this molecule here, CN1C[C@H](c2ccc(C(F)(F)F)cn2)[C@@H](C(=O)Nc2cccc(F)c2F)C1=O , and I need its recorded melting point.
120 to 124 °C

I have this molecule here, CN1CC(c2cccc(I)c2)C(C(=O)Nc2ccccc2F)C1=O (stereo not shown) , and I need its recorded melting point.
132 to 135 °C

The values you see were collected from patent US12077503B2.
